# reported Semi-quantitative analysis of proteins binding to different plaque particles: Synuclein; entries follow
MEASURED ON: T1, alpha-synuclein plaque particles (Homo sapiens, UniProt P37840)
T1 construct: 140 amino acids polypeptide
EXPERIMENT SUMMARY: Mass spectroscopy proteomics, semi-quantitative binding affinity of serum proteins (plaqueproteome, Table 2)
PARTICULARS: higher number = stronger affinity

Solved cases below.
Serum amyloid A-4 protein (protein) ESWRSFFKEALQGVGDMGRAYWDIMISNHQNSNRYLYARGNYDAAQRGPGGVWAAKLISRSRVYLQGLIDCYLFGNSSTVLEDSKSNEKAEEWGRSGKDPDRFRPDGLPKKY ... 1
Apolipoprotein C-II (protein) TQQPQQDEMPSPTFLTQVKESLSSYWESAKTAAQNLYEKTYLPAVDEKLRDLYSKSTAAMSTYTGIFTDQVLSVLKGEE ... 1

Consider now this further molecule.
Would you kindly share the measured Semi-quantitative analysis of proteins binding to different plaque particles: Synuclein for Protein AMBP (protein) GPVPTPPDNIQVQENFNISRIYGKWYNLAIGSTCPWLKKIMDRMTVSTLVLGEGATEAEISMTSTRWRKGVCEETSGAYEKTDTDGKFLYHKSKWNITMESYVVHTNYDEYAIFLTKKFSRHHGPTITAKLYGRAPQLRETLLQDFRVVAQGVGIPEDSIFTMADRGECVPGEQEPEPILIPRVRRAVLPQEEEGSGGGQLVTEVTKKEDSCQLGYSAGPCMGMTSRYFYNGTSMACETFQYGGCMGNGNNFVTEKECLQTCRTVAACNLPIVRGPCRAFIQLWAFDAVKGKCVLFPYGGCQGNGNKFYSEKECREYCGVPGDGDEELLRFSN ? 5

Sourced from patent US9618524B2
